Test: in vitro
Set-up: Viability of infected HeLa host cells, resazurin conversion, bulk resorufin fluorescence relative to DMSO
Settings: human, hela cells; bulk resorufin, mean of 3
Assignment: determine reported viability at 28.5 h, 0.0123333 µM for the given compounds.

In: Identify the reported viability at 28.5 h, 0.0123333 µM for the following entry. CC(=O)Nc1ccc(-c2cccc(COC3CCN(C(=O)c4ccc(OC(C)C)cc4)CC3)c2)cc1 [c36e]
Out: 89%

In: Identify the reported viability at 28.5 h, 0.0123333 µM for the following entry. O=C(N/N=C\c1ccc([N+](=O)[O-])o1)c1nc(-c2ccccc2)cc(-c2ccccc2)n1 [c3e]
Out: 89.2%

In: Identify the reported viability at 28.5 h, 0.0123333 µM for the following entry. O=[N+]([O-])c1ccc2[nH]c3c(c2c1)CCCC3NC1CCN(CCc2ccccc2)CC1 (stereo not drawn) [c23e]
Out: 88%

In: Identify the reported viability at 28.5 h, 0.0123333 µM for the following entry. CC1=C(C)C(=NNC(N)=S)C(C)=C(C)C1=NNC(N)=S [c19e]
Out: 101%

In: Identify the reported viability at 28.5 h, 0.0123333 µM for the following entry. CN(C)c1ccc(Nc2nc(NCCO)c3ccccc3n2)cc1 [c27e]
Out: 89.3%

In: Identify the reported viability at 28.5 h, 0.0123333 µM for the following entry. Cc1cccc(-c2ccc(CC3(C(N)=O)CCN(C(=O)CCc4ccccc4)CC3)cc2)c1 [c38e]
Out: 101%

In: Identify the reported viability at 28.5 h, 0.0123333 µM for the following entry. c1c(C2CC2)[nH]c2nc(N3CCCC3)nc(N3CCCC3)c12 [c7e]
Out: 86.6%

In: Identify the reported viability at 28.5 h, 0.0123333 µM for the following entry. Cc1cccc(OCC(C)NC(=O)NCCc2cnn(C)c2)c1 (stereo not drawn) [c47e]
Out: 104%

In: Identify the reported viability at 28.5 h, 0.0123333 µM for the following entry. O=C(Nc1ccccc1N1CCCNCC1)c1ccc2ccccc2c1 [c29e]
Out: 107%
